assayed_target: Aβ1-42 (Homo sapiens)
Construct: 1,1,1,3,3,3-hexafluoro-2-propanol pretreated Aβ1-42 samples (Bachem AG, Switzerland)
Sequence (P05067 672-713 limits assumed): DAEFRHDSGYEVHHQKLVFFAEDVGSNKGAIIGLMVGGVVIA
protocol_description: biochemical
experimental_setup: ± SEM; 50 μmol/L Aβ, 30°C, 24 h, ThT; highest tested concentration 50 μmol/L; read-out: IC50 Aβ1-42 self-aggregation
pIC50: −log10 of the molar value.

compound: CCN(Cc1ccccc1)Cc1ccc(-c2cc3cc(OC)c(OC)cc3oc2=O)cc1
assayed_target: Aβ1-42 (Homo sapiens)
pIC50: < 4.30
//
compound: COc1cc2cc(-c3ccc(CN(C)Cc4ccccc4)cc3)c(=O)oc2cc1OC
assayed_target: Aβ1-42 (Homo sapiens)
pIC50: < 4.30
//
compound: CCN(Cc1ccccc1)Cc1ccc(-c2cc3cc(O)c(O)cc3oc2=O)cc1
assayed_target: Aβ1-42 (Homo sapiens)
pIC50: 4.66
//
compound: COc1ccc2c3c1O[C@H]1C[C@@H](O)C=C[C@@]31CCN(C)C2 [Galantamine, reference compound]
assayed_target: Aβ1-42 (Homo sapiens)
pIC50: < 4.30

----------
Test system: THP-1 cells
protocol_description: Aβ1-42 oligomer-induced cytotoxicity, MTT assay, THP-1 cells
Format: cell-based
experimental_setup: Homo sapiens, THP-1; ± SEM; 5 μmol/L Aβ1-42 oligomers, 3 h, MTT; highest tested concentration 30 μmol/L; read-out: IC50 Aβ1-42 oligomer toxicity THP-1 cells
quantity_name: IC50 (µM)

molecule: CCN(Cc1ccccc1)Cc1ccc(-c2cc3cc(OC)c(OC)cc3oc2=O)cc1 [AP2243]
assayed_target: THP-1 cells
quantity_name: IC50
unit_of_measurement: µM
qualifier_sign: >
numeric_result: 30
//
molecule: CCN(Cc1ccccc1)Cc1ccc(-c2cc3cc(O)c(O)cc3oc2=O)cc1 [AP2469]
assayed_target: THP-1 cells
quantity_name: IC50
unit_of_measurement: µM
qualifier_sign: =
numeric_result: 8.18

----------
Test system: SH-SY5Y cells
protocol_description: Aβ1-42 oligomer-induced cytotoxicity, MTT assay, SH-SY5Y cells
Format: cell-based
experimental_setup: Homo sapiens, SH-SY5Y; ± SEM; 5 μmol/L Aβ1-42 oligomers, 3 h, MTT; highest tested concentration 30 μmol/L; read-out: IC50 Aβ1-42 oligomer toxicity SH-SY5Y cells
Below is a list of entries, each paired with its recorded IC50 value.

structure_as_smiles: CCN(Cc1ccccc1)Cc1ccc(-c2cc3cc(O)c(O)cc3oc2=O)cc1
qualifier_sign: =
IC50 (µM): 7.5
--
structure_as_smiles: CCN(Cc1ccccc1)Cc1ccc(-c2cc3cc(OC)c(OC)cc3oc2=O)cc1
qualifier_sign: >
IC50 (µM): 30

----------
assayed_target: human recombinant AChE (Homo sapiens, UniProt P22303)
Sequence (P22303 32-614): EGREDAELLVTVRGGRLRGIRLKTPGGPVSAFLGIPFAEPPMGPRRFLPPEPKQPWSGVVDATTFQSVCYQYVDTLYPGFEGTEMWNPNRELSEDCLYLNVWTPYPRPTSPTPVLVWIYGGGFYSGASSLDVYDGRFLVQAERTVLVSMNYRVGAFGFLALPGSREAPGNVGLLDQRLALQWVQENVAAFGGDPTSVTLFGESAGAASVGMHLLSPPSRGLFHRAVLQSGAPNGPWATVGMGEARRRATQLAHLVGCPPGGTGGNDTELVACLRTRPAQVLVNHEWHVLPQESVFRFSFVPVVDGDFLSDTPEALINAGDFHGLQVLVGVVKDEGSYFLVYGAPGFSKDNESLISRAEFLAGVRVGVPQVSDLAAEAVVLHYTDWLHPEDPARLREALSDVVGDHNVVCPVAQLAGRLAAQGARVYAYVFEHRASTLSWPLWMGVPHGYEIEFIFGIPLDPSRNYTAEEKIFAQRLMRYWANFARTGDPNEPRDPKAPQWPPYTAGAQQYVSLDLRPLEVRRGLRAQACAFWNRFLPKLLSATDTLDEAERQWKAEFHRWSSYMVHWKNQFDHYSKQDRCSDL
protocol_description: biochemical
experimental_setup: ± SEM; 20 min preincubation at 37°C, pH 8.0; read-out: IC50 hAChE
pIC50: −log10 of the molar value.

molecule: CCN(Cc1ccccc1)Cc1ccc(-c2cc3cc(O)c(O)cc3oc2=O)cc1 [AP2469]
pIC50: 5.07
